Target sequence: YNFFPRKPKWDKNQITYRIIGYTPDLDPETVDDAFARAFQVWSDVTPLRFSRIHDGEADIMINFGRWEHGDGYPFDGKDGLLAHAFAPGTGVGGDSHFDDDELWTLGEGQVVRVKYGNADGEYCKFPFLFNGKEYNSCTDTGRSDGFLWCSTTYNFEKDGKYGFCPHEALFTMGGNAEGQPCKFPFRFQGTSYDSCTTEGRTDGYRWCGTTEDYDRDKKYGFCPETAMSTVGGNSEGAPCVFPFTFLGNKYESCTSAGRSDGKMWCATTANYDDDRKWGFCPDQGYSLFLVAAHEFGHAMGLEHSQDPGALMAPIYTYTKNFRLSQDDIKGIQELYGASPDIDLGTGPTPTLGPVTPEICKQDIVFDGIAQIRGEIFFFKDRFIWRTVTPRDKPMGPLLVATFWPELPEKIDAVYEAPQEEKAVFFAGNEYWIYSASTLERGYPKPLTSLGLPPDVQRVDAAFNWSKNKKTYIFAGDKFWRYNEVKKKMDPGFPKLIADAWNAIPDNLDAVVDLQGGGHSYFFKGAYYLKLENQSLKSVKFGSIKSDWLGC
measurementName: IC50 (µM)
Just the number in µM, nothing appended.

Observe how each entry below is paired with its result.
>>> df
                               smilesstring  unit  experimentalresult
0  Cc1ccc(C(=O)Nc2ccc(-c3ccc(S(=O)(=O)N[C@H](C)C(=O)O)cc3)cc2)cc1    µM               0.127
1  COc1ccc2cc(C#Cc3ccc(-c4ccc(S(=O)(=O)N[C@H](CO)C(=O)O)cc4)cc3)ccc2c1    µM                5.01

Field request: IC50 | item: `COc1cccc(C(=O)Nc2ccc(-c3ccc(S(=O)(=O)N[C@H](C)C(=O)O)cc3)cc2)c1`
0.563
